# subject-of-test: E. coli SPase (Escherichia coli, UniProt P00803)
# Construct: Full length His-tagged E. coli SPase proteins; His; made in house; host or cells: E. coli BL21(DE3)
# Sequence (P00803 whole entry): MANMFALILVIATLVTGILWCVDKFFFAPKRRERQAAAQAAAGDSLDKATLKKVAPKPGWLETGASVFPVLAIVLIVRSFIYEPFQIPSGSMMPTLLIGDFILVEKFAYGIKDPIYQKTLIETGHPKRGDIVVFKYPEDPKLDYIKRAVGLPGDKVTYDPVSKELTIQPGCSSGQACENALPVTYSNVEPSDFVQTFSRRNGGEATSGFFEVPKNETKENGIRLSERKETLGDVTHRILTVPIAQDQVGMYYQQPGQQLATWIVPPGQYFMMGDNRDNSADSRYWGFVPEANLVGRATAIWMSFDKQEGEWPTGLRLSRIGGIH
# experiment-summary: Biochemical SPase activity assay, fluorogenic peptide substrate, E. coli enzyme
# condition-context: 20 μM substrate, 10 minutes preincubation, read-out: IC 50 (nM) E. coli
*1 amine or outer side, *2 acyl side, *3 side chain or, on linkers, in order; H or OH if unused. Where a SMILES comes first, the peptide text is derived from it. [ ]: non-standard residue; d: D form. The star is where a group is joined. boroAla((+)-pinanediol) = C[C@H](N*)B1O[C@@H]2C[C@@H]3C[C@@H](C3(C)C)[C@]2(C)O1; Biphenylcarbonyl(4'-Bu) = CCCCc1ccc(-c2ccc(C(=O)*)cc2)cc1; Benzoyl(4-(4-Cl-Ph)) = O=C(c1ccc(-c2ccc(Cl)cc2)cc1)*; NH(2-(2-pyridyl)ethyl) = c1ccc(CCN*)nc1; X1 = C[C@H](N[*:1])C(=O)C(=O)[*:2]; X15 = Cc1nnc(C(=O)[C@H](C)N*)o1; NHPhenethyl = c1ccc(CCN*)cc1; Decanoyl = CCCCCCCCCC(=O)*; X4 = c1ccc(C2CCN(*)CC2)cc1; X6 = NCCCCCCCCCCCCCCC(=O)*; boroAla = C[C@H](N*)B(O)O; Octanoyl = CCCCCCCC(=O)*; Dab = NCC[C@H](N)C(=O)O; Dap = NC[C@H](N)C(=O)O; CO = O=C([*:1])[*:2]; CF3 = FC(F)(F)*; NHiPr = CC(C)N*; Sar = CNCC(=O)O
measurement-type: log10(IC50) (log10 of the value in nM)
Scale: log10; quantity: IC50; unit before log: nM

Answered cases to consult:
CCCCCCCCCCCCCC(=O)N[C@@H](CCCCN)C(=O)N[C@@H](C)C(=O)N[C@@H](CCCCN)C(=O)N[C@@H](C)B1O[C@@H]2C[C@@H]3C[C@@H](C3(C)C)[C@]2(C)O1 [Compound 123] | 4.04
C[C@H](NC(=O)[C@H](CCCCN)NC(=O)[C@H](C)NC(=O)[C@@H](NC(=O)[C@H](CCN)NC(=O)CCCCCCCCCCCCCCN)[C@@H](C)O)B1O[C@@H]2C[C@@H]3C[C@@H](C3(C)C)[C@]2(C)O1 [Compound 116] (X6-[Dab]TAK-{boroAla((+)-pinanediol)}) | 2.30
C[C@H](NC(=O)[C@H](CCCCN)NC(=O)[C@H](C)NC(=O)[C@@H](NC(=O)[C@H](CCCCN)NC(=O)N1CCC(c2ccccc2)CC1)[C@@H](C)O)B1O[C@@H]2C[C@@H]3C[C@@H](C3(C)C)[C@]2(C)O1 [Compound 126] ({X4-CO}-KTAK-{boroAla((+)-pinanediol)}) | 2.36
CCCCCCCCCC(=O)N[C@@H](CCN)C(=O)N[C@H](C(=O)N[C@@H](C)C(=O)N[C@@H](CCCCN)C(=O)N[C@@H](C)B(O)O)[C@@H](C)O [Compound 120] (Decanoyl-[Dab]TAK-boroAla) | 1.32
Cc1nnc(C(=O)[C@H](C)NC(=O)[C@H](CCCCN)NC(=O)[C@H](C)NC(=O)[C@H](CCCCN)NC(=O)[C@H](CN)NC(=O)c2ccc(-c3ccc(Cl)cc3)cc2)o1 [Compound 213] ({Benzoyl(4-(4-Cl-Ph))}-[Dap]KAK-X15) | 1.69
CCCCc1ccc(-c2ccc(C(=O)N[C@@H](CCN)C(=O)N[C@H](C(=O)N[C@@H](C)C(=O)N[C@@H](CCCCN)C(=O)N[C@@H](C)C(=O)C(F)(F)F)[C@@H](C)O)cc2)cc1 [Compound 210] ({Biphenylcarbonyl(4'-Bu)}-[Dab]TAKA-CF3) | 2.41
CCCCc1ccc(-c2ccc(C(=O)N[C@@H](CCN)C(=O)N(C)CC(=O)N[C@@H](C)C(=O)N[C@@H](CCCCN)C(=O)N[C@@H](C)B3O[C@@H]4C[C@@H]5C[C@@H](C5(C)C)[C@]4(C)O3)cc2)cc1 [Compound 124] ({Biphenylcarbonyl(4'-Bu)}-[Dab][Sar]AK-{boroAla((+)-pinanediol)}) | 2.04
C[C@H](NC(=O)[C@H](CCCCN)NC(=O)[C@H](C)NC(=O)[C@@H](NC(=O)[C@H](CCN)NC(=O)c1ccc(-c2ccc(Cl)cc2)cc1)[C@@H](C)O)B(O)O [Compound 119] ({Benzoyl(4-(4-Cl-Ph))}-[Dab]TAK-boroAla) | 1.00
CCCCCCCCCC(=O)N[C@@H](CCN)C(=O)N[C@H](C(=O)N[C@@H](C)C(=O)N[C@@H](CCCCN)C(=O)N[C@@H](C)B1O[C@@H]2C[C@@H]3C[C@@H](C3(C)C)[C@]2(C)O1)[C@@H](C)O [Compound 117] (Decanoyl-[Dab]TAK-{boroAla((+)-pinanediol)}) | 1.30
C[C@H](NC(=O)[C@@H](NC(=O)[C@H](CN)NC(=O)c1ccc(-c2ccc(Cl)cc2)cc1)[C@@H](C)O)C(=O)N[C@@H](CCCCN)C(=O)N[C@@H](C)C(=O)C(=O)NCCc1ccccn1 [Compound 104] ({Benzoyl(4-(4-Cl-Ph))}-[Dap]TAK[X1]-{NH(2-(2-pyridyl)ethyl)}) | 2.98

So what log10(IC50) did CCCCc1ccc(-c2ccc(C(=O)N[C@@H](CCN)C(=O)N[C@H](C(=O)N[C@@H](C)C(=O)N[C@@H](CCCCN)C(=O)N[C@@H](C)C(=O)C3(C)CO3)[C@@H](C)O)cc2)cc1 (single isomer, unassigned) [Compound 207 P2] get with E. coli SPase (Escherichia coli, UniProt P00803)?
4.00

So what log10(IC50) did CCCCCCCC(=O)N[C@@H](CCN)C(=O)N[C@H](C(=O)N[C@@H](C)C(=O)N[C@@H](CCCCN)C(=O)N[C@@H](C)B1O[C@@H]2C[C@@H]3C[C@@H](C3(C)C)[C@]2(C)O1)[C@@H](C)O [Compound 114] (Octanoyl-[Dab]TAK-{boroAla((+)-pinanediol)}) get with E. coli SPase (Escherichia coli, UniProt P00803)?
1.81

So what log10(IC50) did C[C@H](NC(=O)[C@@H](NC(=O)[C@H](CN)NC(=O)c1ccc(-c2ccc(Cl)cc2)cc1)[C@@H](C)O)C(=O)N[C@@H](CCCCN)C(=O)N[C@@H](C)C(=O)C(=O)NCCc1ccccc1 [Compound 110] ({Benzoyl(4-(4-Cl-Ph))}-[Dap]TAK[X1]-NHPhenethyl) get with E. coli SPase (Escherichia coli, UniProt P00803)?
3.78

So what log10(IC50) did CC(C)NC(=O)C(=O)[C@H](C)NC(=O)[C@H](CCCCN)NC(=O)[C@H](C)NC(=O)[C@@H](NC(=O)[C@H](CN)NC(=O)c1ccc(-c2ccc(Cl)cc2)cc1)[C@@H](C)O [Compound 103] ({Benzoyl(4-(4-Cl-Ph))}-[Dap]TAK[X1]-NHiPr) get with E. coli SPase (Escherichia coli, UniProt P00803)?
3.04
